Biological target: c-Myc/Max/Ebox DNA (Homo sapiens)
Test: c-Myc/Max/Ebox DNA AlphaScreen assay
Type: binding
Parameters: An exemplary assay uses full-length human c-Myc and Max proteins; his6 (cleaved yes); made in house
Conditions: c-Myc/Max/Ebox DNA AlphaScreen; NA: inactive under assay conditions; read-out: Biochemical IC50
// NB: equality with 30 µM counts as criterion not met; only IC50 strictly below is criterion met

Here's what some known entries look like.
IC50 strictly < 30 µM for this compound? Cc1cc(C(=O)O)ccc1-n1c(C)ccc1C
criterion not met

How about Cc1ccc(C)n1-c1cc(C(=O)N/N=C/c2cccc(B(O)O)c2)ccc1C(=O)O ?
criterion met

Further cases:
IC50 strictly < 30 µM for this compound? Cc1ccc(C)n1-c1cc(C(=O)NN)ccc1C(=O)O [Compound 142]
criterion met

How about Cc1ccc(C)n1-c1ccc(C(=O)O)c(O)c1 [Compound 65] ?
criterion not met

How about Cc1ccc(C)n1-c1ccc(Cl)cc1C(=O)O [Compound 35] ?
criterion not met

* * *

Catalogue of compounds with associated IC50
Target: c-Myc/Max/Ebox DNA (Homo sapiens, UniProt P01106)
Sequence (P01106 16-454): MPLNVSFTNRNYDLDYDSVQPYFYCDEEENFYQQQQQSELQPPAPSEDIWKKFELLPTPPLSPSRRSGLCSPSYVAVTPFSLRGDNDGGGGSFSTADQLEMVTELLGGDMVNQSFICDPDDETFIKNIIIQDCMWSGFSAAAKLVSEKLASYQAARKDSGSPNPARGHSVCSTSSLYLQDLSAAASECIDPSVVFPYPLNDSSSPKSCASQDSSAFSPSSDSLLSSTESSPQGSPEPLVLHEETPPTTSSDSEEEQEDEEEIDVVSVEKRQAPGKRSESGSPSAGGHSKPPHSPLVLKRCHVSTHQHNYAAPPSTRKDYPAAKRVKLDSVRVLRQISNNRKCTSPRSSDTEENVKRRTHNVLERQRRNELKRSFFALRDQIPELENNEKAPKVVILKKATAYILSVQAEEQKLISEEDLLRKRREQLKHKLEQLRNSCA
Experiment: c-Myc/Max/Ebox DNA AlphaScreen assay
Assay type: binding
Set-up: An exemplary assay uses full-length human c-Myc and Max proteins; his6 (cleaved yes); made in house
Conditions: c-Myc/Max/Ebox DNA AlphaScreen; NA: inactive under assay conditions; read-out: Biochemical IC50
The answer is to be given in µM; state only the numeric part.

Use the examples below as a reference point.
Give recorded IC50 with c-Myc/Max/Ebox DNA (Homo sapiens, UniProt P01106) for the following compound: CCCOC(=O)c1ccc(-n2c(CCC(=O)O)ccc2-c2ccccc2)cc1O
96

How about CN(C)c1ccc(/N=N/c2ccccc2C(=O)O)cc1 ?
43.4

How about Cc1cc(/C=C2\SC(=O)N(C)C2=O)c(C)n1-c1ccccc1C(=O)O [Compound 57] ?
92.2

Further cases:
Give recorded IC50 with c-Myc/Max/Ebox DNA (Homo sapiens, UniProt P01106) for the following compound: Cc1ccc(C)n1-c1cc(C(=O)N/N=C/c2c[nH]c3cc(F)ccc23)ccc1C(=O)O
34.4

* * *

Test system: MM1S cells
Assay: Cell viability assay (ATPlite), MM1S
Assay type: cell-based, human
Details: cell viability, three days, ATPlite; NA: inactive under assay conditions
Source text: This assay was used for the H2171 and MM1S cell data shown in Table 2, and for the Jurkat (an immortalized line of human T lymphocyte cells), Ly1 (OCI-Ly1 human non-Hodgkin lymphoma cell line), Ly4 (OCI-Ly4 human non-Hodgkin lymphoma cell line), H2172 (NCI-H2172 human non-small cell lung cancer cell line), and CA-46 (a human Burkitt's lymphoma cell line) cell data shown in Table 3 and FIG. 12. Cells were counted and adjusted to 60,000 cells/mL. […]
// NB: equality with 200 µM counts as Not fulfilled; only EC50 strictly below is Fulfilled

Here's what some known entries look like.
EC50 strictly < 200 µM for this molecule? CC(=O)OCOC(=O)c1ccc(-n2c(C)ccc2C)cc1O [Compound 143]
Fulfilled

How about CC(=O)OCOC(=O)c1ccc(-n2c(C)ccc2C)cc1O [Compound 113] ?
Fulfilled

How about CC(=O)OCOC(=O)c1ccccc1-n1c(C)ccc1C ?
Fulfilled

How about Cc1ccc(C)n1-c1ccccc1C(=O)O [Compound 1] ?
Fulfilled

Further cases:
EC50 strictly < 200 µM for this molecule? Cc1ccc(C)n1-c1ccc(C(=O)O)c(O)c1 [Compound 65]
Not fulfilled

How about Cc1ccc(C)n1-c1ccccc1C(=O)O [Compound 63, 2-(2,5-dimethylpyrrolyl)benzoic acid] ?
Not fulfilled

How about Cc1ccc(C)n1-c1ccc(C(=O)O)c(O)c1 [Compound 127] ?
Not fulfilled

How about Cc1ccc(C)n1-c1cc(C(=O)NN)ccc1C(=O)O ?
Not fulfilled

How about CC(=O)OCOC(=O)c1ccc(-n2c(C)ccc2C)cc1O [Compound 144] ?
Not fulfilled

* * *

Catalogue of compounds with associated IC50
Target: c-Myc/Max/Ebox DNA (Homo sapiens)
Assay: c-Myc/Max/Ebox DNA AlphaScreen assay
Assay type: binding
Set-up: An exemplary assay uses full-length human c-Myc and Max proteins; his6 (cleaved yes); made in house
Conditions: class symbols; NA: not active under assay conditions; read-out: Myc/Max IC50

Use the examples below as a reference point.
Suppose we examine the compound Cc1ccc(C)n1-c1cc(C(=O)N2CCC=C(c3ccc(C(=O)O)cc3)C2)ccc1C(=O)O ; what IC50 value has been reported?
10 to 100 µM

How about Cc1ccc(C(F)(F)F)n1-c1ccccc1C(=O)O ?
≥ 100 µM

How about Cc1ccc(C)n1-c1cc(C(=O)N2CCN(c3ccccc3C(=O)O)CC2)ccc1C(=O)O ?
1 to 10 µM

How about Cc1ccc(C)n1-c1cc(C(=O)N2CCCC(c3ccc(C(=O)O)cc3)C2)ccc1C(=O)O (centres unmarked) [Compound 164] ?
1 to 10 µM

Further cases:
Suppose we examine the compound Cc1ccc(C)n1-c1ncccc1C(=O)O ; what IC50 value has been reported?
1 to 10 µM

How about Cc1ccc(C)n1-c1cc(C(=O)N2CCCC(c3ccc(C(=O)O)cc3)C2)ccc1C(=O)NS(C)(=O)=O (centres unmarked) ?
10 to 100 µM

How about Cc1ccc(C)n1-c1cc(C(=O)N/N=C/c2cccc(C(=O)O)c2)ccc1C(=O)O ?
1 to 10 µM

How about COC(=O)c1ccc(C(=O)NN)cc1-n1c(C)ccc1C ?
≥ 100 µM

How about Cc1ccc(C)n1-c1cc(C(=O)N2CCN(c3cccc(C(=O)O)c3)CC2)ccc1C(=O)O ?
< 1 µM

How about COc1ccc(C2CCCN(C(=O)c3ccc(C(=O)O)c(-n4c(C)ccc4C)c3)C2)cc1 (centres unmarked) ?
10 to 100 µM

* * *

Catalogue of compounds with associated EC50
Test system: MM1S cells
Test: Cell viability assay (ATPlite), MM1S
Format: cell-based, human
Details: Homo sapiens, MM1.S, 72 h, cell viability, three days, ATPlite; NA: inactive under assay conditions
Please make sure the unit comes right after the number.

Use the examples below as a reference point.
Give recorded EC50 with MM1S cells for the following compound: Cc1ccc(C)n1-c1cc(C(=O)N/N=C/c2ccccc2)ccc1C(=O)O
261 µM

How about COc1cc(C(=O)O)c(-n2c(C)ccc2C)cc1OC ?
161 µM

How about Cc1ccc(C)n1-c1cc(C(=O)N/N=C/c2ccc(N(C)C)cc2)ccc1C(=O)O ?
86.5 µM

Further cases:
Give recorded EC50 with MM1S cells for the following compound: Cc1ccc(C)n1-c1cc(C(=O)N/N=C/c2ccc(F)c(F)c2)ccc1C(=O)O
492 µM

How about O=C(O)c1ccc(-n2cccc2)cc1O ?
130 µM

How about Cc1ccc(-c2ccc(-n3c(C)ccc3C)c(C(=O)O)c2)cc1 ?
1690 µM

How about CC(=O)OCOC(=O)c1cccc(/C=N/NC(=O)c2ccc(C(=O)OCOC(C)=O)c(-n3c(C)ccc3C)c2)c1 ?
11.7 µM

How about Cc1ccc(C)n1-c1ccccc1CC(=O)O ?
340 µM

* * *

Molecular target: c-Myc/Max/Ebox DNA (Homo sapiens)
Assay: c-Myc/Max/Ebox DNA AlphaScreen assay
Format: binding
Set-up: An exemplary assay uses full-length human c-Myc and Max proteins; his6 (cleaved yes); made in house
Details: class symbols; NA: not active under assay conditions; read-out: Myc/Max IC50
pIC50: −log10 of the molar value.
Property Measured: pIC50

Use the examples below as a reference point.
Suppose we examine the compound Cc1ccccc1N1CCN(C(=O)c2ccc(C(=O)O)c(-n3c(C)ccc3C)c2)CC1 ; what pIC50 value has been reported?
4.00 to 5.00

How about Cc1ccc(C)n1-c1cc(CNCc2cccc(C(=O)O)c2)ccc1C(=O)O ?
5.00 to 6.00

How about Cc1ccc(C)n1-c1ccccc1C(=O)NS(=O)(=O)c1ccccc1 ?
≤ 4.00

How about O=C(O)c1ccccc1-n1c(Br)ccc1C(F)(F)F ?
4.00 to 5.00

Further cases:
Suppose we examine the compound Cc1cccc(C2CCCN(C(=O)c3ccc(C(=O)O)c(-n4c(C)ccc4C)c3)C2)c1 (stereo not drawn) ; what pIC50 value has been reported?
4.00 to 5.00

How about Cc1ccc(C)n1-c1cc(C(=O)N2CCCC(c3ccc(C(=O)NS(C)(=O)=O)cc3)C2)ccc1C(=O)NS(C)(=O)=O (stereo not drawn) ?
≤ 4.00

How about Cc1ccc(C)n1-c1cc(CNCc2ccc(C(=O)O)cc2)ccc1C(=O)O ?
> 6.00

* * *

Catalogue of compounds with associated EC50
Tested on: H2171 cells
Test: Cell viability assay (ATPlite), H2171
Type: cell-based, human
Details: cell viability, three days, ATPlite; NA: inactive under assay conditions
The answer is to be given in µM; state only the numeric part.

Use the examples below as a reference point.
Suppose we examine the compound Cc1ccc(C)n1-c1ccc(C(=O)O)c(O)c1 [Compound 127] ; what EC50 value has been reported?
517

How about Cc1ccc(C)n1-c1ccc(C(=O)O)c(O)c1 [Compound 65] ?
189

How about Cc1ccc(C)n1-c1cc(C(=O)NN)ccc1C(=O)O ?
43.7

How about CC(=O)OCOC(=O)c1ccc(-n2c(C)ccc2C)cc1O [Compound 143] ?
66.1

How about CC(=O)OCOC(=O)c1ccccc1-n1c(C)ccc1C ?
20.7

How about Cc1ccc(C)n1-c1ccccc1C(=O)O ?
93.5

# evaluate next
Suppose we examine the compound CC(=O)OCOC(=O)c1ccc(-n2c(C)ccc2C)cc1O [Compound 113] ; what EC50 value has been reported?
2.8
